- Test: Compound cytotoxicity, XTT-based colorimetric assay
- Assay type: cell-based
- Setup Conditions: human; uninfected MT2 cells, day 4, XTT assay
Experimental Endpoint: CC50 at 4 day

Study these solved cases before continuing.
- COc1cc(-c2ccc3c(=O)n(-c4ccc(Cl)c5c(NS(C)(=O)=O)nn(C)c45)c([C@H](Cc4cc(F)cc(F)c4)NC(=O)Cn4nc(C(F)F)c5c4C(F)(F)[C@@H]4C[C@H]54)nc3n2)ccn1 (atropisomer, axis not shown; (P)): > 100 nM
- Cc1cc(-c2ccc3c(=O)n(-c4ccc(Cl)c5c(NS(C)(=O)=O)nn(C)c45)c([C@H](Cc4cc(F)cc(F)c4)NC(=O)Cn4nc(C(F)F)c5c4C(F)(F)[C@@H]4C[C@H]54)nc3n2)n(CC(C)(F)F)n1 (single isomer, unassigned): > 100 nM

In the following, a different compound is considered.
Query block: Return reported CC50 at 4 day; argument: Cn1nc(NS(C)(=O)=O)c2c(Cl)ccc(-n3c([C@H](Cc4cc(F)cc(F)c4)NC(=O)Cn4nc(C(F)F)c5c4C(F)(F)[C@@H]4C[C@H]54)nc4nc(-c5ccccn5)ccc4c3=O)c21 (atropisomer, axis not shown; (P))
Result block: > 100 nM
